target-entity: Isocitrate dehydrogenase [NADP], mitochondrial (Homo sapiens, UniProt P48735, R140Q)
assay-comment: Inhibition of IDH2 R140Q mutant (unknown origin) transfected using lentiviral expression system in human U87MG cells assessed as reduction in 2-HG content using alpha-ketoglutarate as substrate after 48 hrs by LC-MS analysis
Type: cell-based
pIC50: −log10 of the molar value.
Please mark y if the recorded pIC50 is equal to or greater than 8, and n if it falls below.

Task: Check this compound for pIC50 at or above 8: FC1(F)CC(Nc2nc(NC3CC(F)(F)C3)nc(-c3cccc(C(F)(F)F)n3)n2)C1
Output: y

Task: Check this compound for pIC50 at or above 8: FC1(F)CCC(Nc2nc(NC3CCC(F)(F)CC3)nc(-c3cccc(Cl)n3)n2)CC1
Output: n

Task: Check this compound for pIC50 at or above 8: FC(F)(F)c1cccc(-c2nc(NCC3CC3)nc(NCC3CC3)n2)n1
Output: n

Entry source: ChEMBL document CHEMBL4334545
